Experiment: AUC (0 to infinity) in mouse at 1 mg/kg, po
Assay type: ADME, organism-based
Design: dose 1 mg/kg, route po
Settings: in vivo
readout.label: AUC (µM·h)
// note: answer is a bare numeric in µM·h

**Q:** Could you share which AUC value was measured for CCN1CCN(C(=O)Nc2cc(-c3cn(C4CCOCC4)c4cnccc34)ccn2)CC1 ?
**A:** 3.27

###

Target: Glycogen synthase kinase-3 beta (Homo sapiens, UniProt P49841)
Sequence (P49841 whole entry): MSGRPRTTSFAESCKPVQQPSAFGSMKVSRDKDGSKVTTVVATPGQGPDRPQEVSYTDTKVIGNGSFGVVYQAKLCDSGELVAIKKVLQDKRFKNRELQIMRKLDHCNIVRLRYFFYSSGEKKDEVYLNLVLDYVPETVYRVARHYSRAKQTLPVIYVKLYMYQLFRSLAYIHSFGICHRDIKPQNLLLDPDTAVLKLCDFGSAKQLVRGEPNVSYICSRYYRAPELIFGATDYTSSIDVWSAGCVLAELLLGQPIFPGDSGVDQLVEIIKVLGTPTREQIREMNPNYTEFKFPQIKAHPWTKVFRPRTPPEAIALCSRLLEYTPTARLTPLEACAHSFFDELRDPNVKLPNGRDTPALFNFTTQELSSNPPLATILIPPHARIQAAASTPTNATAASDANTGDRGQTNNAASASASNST
pIC50: −log10 of the molar value.
readout.label: pIC50

**Q:** Could you share which pIC50 value was measured for COc1ccc2c(c1)[nH]c1c(CO)nccc12 ?
**A:** < 5.08

###

# selectivity ratio per record follows
Experiment: Selectivity ratio of CC50 for mouse R7T1 cells to ECmin for mouse pancreatic islet cells
Type: toxicity
Conditions: R7T1 cells (CC50) and pancreatic islet cells (ECmin)
Field format: numeric only.

item.smiles: CCOC(=O)c1cnc2ccc(-c3ccncc3)nc2c1N[C@H]1CC[C@H](CN2CCOCC2)CC1
selectivity ratio: 143

item.smiles: CCOC(=O)c1cnc2ccc(-c3ccncc3)nc2c1N[C@H]1CC[C@H](CN(C)C)CC1
selectivity ratio: 259

Next molecule, please.
**Q:** Could you share which selectivity ratio value was measured for CCOC(=O)c1cnc2ccc(-c3cc(Cl)c(O)c(Cl)c3)nc2c1NC1CCN(C)CC1 ?
**A:** 117
